System: RXF 393 renal
protocolDetails: NCI tumour cell line growth inhibition, 48 h
Recorded TGI, one value per entry.
assayEndpoint: TGI (µM)

compound | testTarget | qual | testResult
Oc1ccc(I)c2cccnc12 | RXF 393 renal | = | 33.1
Cc1c(C(=O)/C=C/c2ccc([N+](=O)[O-])cc2)[n+](=O)c2ccccc2n1[O-] | RXF 393 renal | > | 100
COc1ccc(-c2cc(-c3ccc(Cl)cc3)nc(SCCCC(=O)NO)n2)cc1OC | RXF 393 renal | = | 1.66
COC(=O)CSc1cc(Cl)c(C)cc1S(=O)(=O)Nc1n[nH]c(N)n1 | RXF 393 renal | > | 10
CC1(C)COC(c2cccc(C(O)c3ccc(Cl)cc3)c2)=N1 (stereo unspecified) | RXF 393 renal | = | 37.8
Cc1c(CN2CCOCC2)c(CN2CCOCC2)c(C)n1-c1ccc(Cl)cn1 | RXF 393 renal | > | 100
